// values below are reported pIC50
System: MYB
Assay: Splicing RT-qPCR assay, MYB mRNA canonical junction (CJ) and alternative junction (AJ)
Type: cell-based, human
Conditions: Homo sapiens, 24 h, decrease in CJ mRNA; A673 or K562 cells, 24 hours treatment, RT-qPCR; read-out: MYB CJ IC50
Description: Compounds described herein were used to modulate RNA transcript abundance in cells. The expression of a target mRNA was measured by detecting the formation of an exon-exon junction in the canonical transcript (CJ). A compound mediated exon-inclusion event was detected by observing an increase in formation of a new junction with an alternative exon (AJ). Real-time qPCR assays were used to detect these splicing switches and interrogate the potency of various compounds towards different target genes. […]
pIC50: −log10 of the molar value.

# annotated cases, reported pIC50 shown
>  <Compound>
COc1cc(-c2ccc(-c3ccc(O[C@@H]4C[C@H]5CC[C@@H](C4)N5)nn3)c3scnc23)cnn1

>  <Measured Value>
6.00 to 7.00

$$$$
>  <Compound>
Cn1ncc(-c2ccc(-c3ccc(OC4CC(C)(C)NC(C)(C)C4)nn3)c3[nH]ncc23)n1

>  <Measured Value>
6.00 to 7.00

$$$$
>  <Compound>
c1nc2c(-c3cn[nH]c3)ccc(-c3ccc(NC4CNC4)nn3)c2s1

>  <Measured Value>
< 5.00

$$$$

So what does the record say about pIC50 for c1nc2c(-c3cn[nH]c3)ccc(-c3ccc(N(C4CC4)C4C[C@H]5CCC[C@@H](C4)N5)nn3)c2s1 (stereo partly shown) ? 6.00 to 7.00

Would you kindly repeat that for `c1nc2c(-c3cn[nH]c3)ccc(-c3ccc(N4CCC5(CCNCC5)C4)nn3)c2s1` ? < 5.00

Would you kindly repeat that for `CN(c1ccc(-c2ccc(-c3cn[nH]c3)c3ncsc23)nn1)[C@@H]1C[C@H]2CCC[C@@H](C1)N2` ? > 7.00

Would you kindly repeat that for `CN(c1ccc(-c2ccc(-c3cn[nH]c3)c3ncsc23)nn1)[C@H]1C[C@H]2COC[C@@H](C1)N2` ? 5.00 to 6.00

Taken from patent US20240368163A1.
